Target: mAChR M4 (Homo sapiens, UniProt P08173)
Construct: expressed in transfected cells; host or cells: CHO-K1 cells stably transfected with M4 cDNA and chimeric G-protein Gqi5
Sequence (P08173 1-479): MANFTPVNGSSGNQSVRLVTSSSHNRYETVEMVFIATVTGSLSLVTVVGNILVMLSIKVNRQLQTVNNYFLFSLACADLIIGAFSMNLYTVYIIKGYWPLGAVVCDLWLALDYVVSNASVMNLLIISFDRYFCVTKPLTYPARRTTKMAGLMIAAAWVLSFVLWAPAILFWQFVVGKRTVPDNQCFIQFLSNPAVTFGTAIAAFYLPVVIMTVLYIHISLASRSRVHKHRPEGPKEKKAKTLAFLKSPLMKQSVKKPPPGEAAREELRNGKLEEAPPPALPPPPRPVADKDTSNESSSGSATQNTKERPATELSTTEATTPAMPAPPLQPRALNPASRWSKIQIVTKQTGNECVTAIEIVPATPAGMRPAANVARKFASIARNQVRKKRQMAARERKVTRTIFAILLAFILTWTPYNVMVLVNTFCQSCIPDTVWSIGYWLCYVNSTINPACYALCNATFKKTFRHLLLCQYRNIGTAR
Assay: mAChR M4 cell-based functional assay (calcium mobilization, potentiation of EC20 acetylcholine response)
Settings: % ACh maximum at 30 μM
Please note: Emax at 30 µM exactly at 60% is 0.0. Only values below 60% get 1.0.

{"COMPOUND": "Cc1nnc2sc(C(=O)N3CC4(CN(C(=O)c5ccccc5)C4)C3)c(N)c2c1C", "ASSIGNED_CLASS": 1.0}
{"COMPOUND": "Cc1nnc2sc(C(=O)N3CC(NC(=O)CCc4ccccc4)C3)c(N)c2c1C", "ASSIGNED_CLASS": 1.0}
{"COMPOUND": "Cc1nnc2sc(C(=O)N3CC(Br)(c4ccccc4)C3)c(N)c2c1C", "ASSIGNED_CLASS": 1.0}
{"COMPOUND": "Nc1c(C(=O)NCc2ccccc2)sc2nnc3c(c12)CCCC3", "ASSIGNED_CLASS": 1.0}
{"COMPOUND": "Cc1nnc2sc(C(=O)NC3CCN(c4ccccc4OC(F)(F)F)C3)c(N)c2c1C (stereo not drawn)", "ASSIGNED_CLASS": 0.0}
{"COMPOUND": "Cc1nnc2sc(C(=O)NCc3ccc4c(ccn4C)c3)c(N)c2c1C", "ASSIGNED_CLASS": 0.0}
{"COMPOUND": "Cc1nnc2sc(C(=O)NC3CCCC3)c(N)c2c1C", "ASSIGNED_CLASS": 1.0}
{"COMPOUND": "Cc1nnc2sc(C(=O)N3CCC(C4CCCCC4)C3)c(N)c2c1C (stereo not drawn)", "ASSIGNED_CLASS": 1.0}

====

Molecular target: mAChR M4 (Homo sapiens)
Construct: expressed in transfected cells; host or cells: CHO-K1 cells stably transfected with M4 cDNA and chimeric G-protein Gqi5
Sequence (P08173 1-479): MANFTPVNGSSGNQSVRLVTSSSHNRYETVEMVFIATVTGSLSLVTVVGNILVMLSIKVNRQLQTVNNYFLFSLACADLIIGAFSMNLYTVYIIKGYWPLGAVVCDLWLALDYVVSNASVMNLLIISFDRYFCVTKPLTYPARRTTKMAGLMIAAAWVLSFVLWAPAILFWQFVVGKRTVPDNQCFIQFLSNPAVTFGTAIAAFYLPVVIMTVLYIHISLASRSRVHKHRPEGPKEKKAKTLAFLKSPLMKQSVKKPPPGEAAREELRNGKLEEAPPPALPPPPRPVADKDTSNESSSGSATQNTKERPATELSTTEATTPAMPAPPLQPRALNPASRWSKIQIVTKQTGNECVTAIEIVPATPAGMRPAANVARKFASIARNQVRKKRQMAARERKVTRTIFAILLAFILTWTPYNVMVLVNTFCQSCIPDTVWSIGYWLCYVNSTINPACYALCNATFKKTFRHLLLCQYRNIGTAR
Experiment: mAChR M4 cell-based functional assay (calcium mobilization, potentiation of EC20 acetylcholine response)
Settings: % ACh maximum at 30 μM
// reported Emax at 30 µM for each item listed
QUANTITY_KIND: Emax at 30 µM (%)

{"COMPOUND": "Cc1nnc2sc(C(=O)NCc3ccc(S(=O)(=O)c4ccccc4)cc3)c(N)c2c1C", "VALUE_UNITS": "%", "NUMERIC_RESULT": 63}
{"COMPOUND": "Cc1nnc2sc(C(=O)NCc3cnn(C)c3)c(N)c2c1C", "VALUE_UNITS": "%", "NUMERIC_RESULT": 58}
{"COMPOUND": "Cc1nnc2sc(C(=O)NCc3ccc([S+]([O-])C(F)F)cc3)c(N)c2c1C (stereo not drawn) [Example B478]", "VALUE_UNITS": "%", "NUMERIC_RESULT": 71}
{"COMPOUND": "Cc1nnc2sc(C(=O)NCc3ccc(-c4cncc(F)c4)cc3)c(N)c2c1C", "VALUE_UNITS": "%", "NUMERIC_RESULT": 71}
{"COMPOUND": "Cc1nnc2sc(C(=O)N3CC(F)(c4cccnc4)C3)c(N)c2c1C", "VALUE_UNITS": "%", "NUMERIC_RESULT": 42}
{"COMPOUND": "COc1ccc2c(c1)CCN(C(=O)c1sc3nnc(C)c(C)c3c1N)C2", "VALUE_UNITS": "%", "NUMERIC_RESULT": 57}
{"COMPOUND": "Cc1nnc2sc(C(=O)N3CCCC(c4ccccc4)C3)c(N)c2c1C (stereo not drawn)", "VALUE_UNITS": "%", "NUMERIC_RESULT": 52}
{"COMPOUND": "CCCCC1(F)CN(C(=O)c2sc3nnc(C)c(C)c3c2N)C1", "VALUE_UNITS": "%", "NUMERIC_RESULT": 55}
{"COMPOUND": "Cc1nnc2sc(C(=O)N3Cc4ccccc4C3)c(N)c2c1C", "VALUE_UNITS": "%", "NUMERIC_RESULT": 46}

====

molecular target: mAChR M4 (Homo sapiens, UniProt P08173); construct: expressed in transfected cells; host or cells: CHO-K1 cells stably transfected with M4 cDNA and chimeric G-protein Gqi5; experiment: mAChR M4 cell-based functional assay (calcium mobilization, potentiation of EC20 acetylcholine response); conditions: % ACh maximum at 30 μM
Decide using Emax at 30 µM: a value greater than or equal to 70% is yes (1), a smaller one is no (0).

{"COMPOUND": "Cc1nnc2sc(C(=O)N3C[C@@H]4C[C@@H]3CN4C(=O)Oc3ccccc3)c(N)c2c1C", "TARGET_ENTITY": "mAChR M4 (Homo sapiens, UniProt P08173)", "ASSIGNED_CLASS": "no (0)"}
{"COMPOUND": "Cc1nnc2sc(C(=O)NCCN(C)C(=O)c3ccccc3)c(N)c2c1C", "TARGET_ENTITY": "mAChR M4 (Homo sapiens, UniProt P08173)", "ASSIGNED_CLASS": "no (0)"}
{"COMPOUND": "Cc1nnc2sc(C(=O)N3CC(S(=O)(=O)c4ccccc4)C3)c(N)c2c1C", "TARGET_ENTITY": "mAChR M4 (Homo sapiens, UniProt P08173)", "ASSIGNED_CLASS": "no (0)"}
{"COMPOUND": "Cc1nnc2sc(C(=O)N3CC4CN(C5CCCC5)CC4C3)c(N)c2c1C (stereo not drawn)", "TARGET_ENTITY": "mAChR M4 (Homo sapiens, UniProt P08173)", "ASSIGNED_CLASS": "no (0)"}
{"COMPOUND": "COC1(C)CN(C(=O)c2sc3nnc(C)c(C)c3c2N)C1", "TARGET_ENTITY": "mAChR M4 (Homo sapiens, UniProt P08173)", "ASSIGNED_CLASS": "no (0)"}
{"COMPOUND": "Cc1nnc2sc(C(=O)NC3CN(C(=O)CCCc4ccccc4)C3)c(N)c2c1C", "TARGET_ENTITY": "mAChR M4 (Homo sapiens, UniProt P08173)", "ASSIGNED_CLASS": "yes (1)"}
{"COMPOUND": "Cc1nnc2sc(C(=O)NCc3ccc(S(C)(=O)=O)cn3)c(N)c2c1C", "TARGET_ENTITY": "mAChR M4 (Homo sapiens, UniProt P08173)", "ASSIGNED_CLASS": "yes (1)"}
{"COMPOUND": "Cc1nnc2sc(C(=O)NCCN(C)C(=O)c3ccc(F)cc3)c(N)c2c1C", "TARGET_ENTITY": "mAChR M4 (Homo sapiens, UniProt P08173)", "ASSIGNED_CLASS": "no (0)"}
{"COMPOUND": "Cc1nnc2sc(C(=O)N3CC4CN(C(=O)C5CC5)CC4C3)c(N)c2c1C (stereo not drawn)", "TARGET_ENTITY": "mAChR M4 (Homo sapiens, UniProt P08173)", "ASSIGNED_CLASS": "no (0)"}
{"COMPOUND": "Nc1c(C(=O)NCc2ccncc2)sc2nnc(-c3ccccc3)c(-c3ccccc3)c12", "TARGET_ENTITY": "mAChR M4 (Homo sapiens, UniProt P08173)", "ASSIGNED_CLASS": "no (0)"}
{"COMPOUND": "Cc1nnc2sc(C(=O)N3CCC[C@H]3C)c(N)c2c1C", "TARGET_ENTITY": "mAChR M4 (Homo sapiens, UniProt P08173)", "ASSIGNED_CLASS": "no (0)"}
{"COMPOUND": "CS(=O)(=O)c1ccc(CNC(=O)c2sc3nnc4c(c3c2N)CCCC4)cc1", "TARGET_ENTITY": "mAChR M4 (Homo sapiens, UniProt P08173)", "ASSIGNED_CLASS": "no (0)"}
{"COMPOUND": "Cc1nnc2sc(C(=O)N3CC(c4ccccc4)C3)c(N)c2c1C", "TARGET_ENTITY": "mAChR M4 (Homo sapiens, UniProt P08173)", "ASSIGNED_CLASS": "yes (1)"}
{"COMPOUND": "Cc1nnc2sc(C(=O)NC3CCN(C(=O)Cc4cccs4)C3)c(N)c2c1C (stereo not drawn)", "TARGET_ENTITY": "mAChR M4 (Homo sapiens, UniProt P08173)", "ASSIGNED_CLASS": "yes (1)"}
{"COMPOUND": "Cc1nnc2sc(C(=O)N3CCC(NS(=O)(=O)c4ccccc4)C3)c(N)c2c1C (stereo not drawn)", "TARGET_ENTITY": "mAChR M4 (Homo sapiens, UniProt P08173)", "ASSIGNED_CLASS": "no (0)"}
{"COMPOUND": "Cc1nnc2sc(C(=O)NC34CC(C3)C4)c(N)c2c1C", "TARGET_ENTITY": "mAChR M4 (Homo sapiens, UniProt P08173)", "ASSIGNED_CLASS": "yes (1)"}
{"COMPOUND": "Cc1nnc2sc(C(=O)NCc3ccc(-c4ccc5nccnc5c4)cc3)c(N)c2c1C", "TARGET_ENTITY": "mAChR M4 (Homo sapiens, UniProt P08173)", "ASSIGNED_CLASS": "no (0)"}
{"COMPOUND": "Cc1nnc2sc(C(=O)N3CC(N)(c4ccccc4)C3)c(N)c2c1C", "TARGET_ENTITY": "mAChR M4 (Homo sapiens, UniProt P08173)", "ASSIGNED_CLASS": "no (0)"}
